Recorded values, source ChEMBL document CHEMBL6177968.

Kindly supply the reported selectivity ratio values for the records listed here.
experiment: Selectivity index, ratio of CC50 for cytotoxicity in human HepG2.2.15 cells assessed as reduction in cell viability to EC50 for antiviral activity against HBV in human HepG2.2.15 cells assessed as reduction in viral replication; assay type: toxicity, cell-based; conditions: read-out: Ratio CC50/EC50

Lookup: Record request: selectivity ratio value, item C[C@@H](CO)NS(=O)(=O)c1cc(C(=O)Nc2ccc(F)c(F)c2)c(N)cc1F
Found: 73.7

Lookup: Record request: selectivity ratio value, item Nc1cc(F)c(S(=O)(=O)NC2CCNC2)cc1C(=O)Nc1ccc(F)c(F)c1 (centres undefined)
Found: 14.5

Lookup: Record request: selectivity ratio value, item CC1(NS(=O)(=O)c2cc(C(=O)Nc3ccc(F)c(C(F)F)c3)c(N)cc2F)COC1
Found: 458

Lookup: Record request: selectivity ratio value, item CC1(CNS(=O)(=O)c2cc(C(=O)Nc3ccc(F)c(C(F)F)c3)c(N)cc2F)COC1
Found: 14300

Lookup: Record request: selectivity ratio value, item Nc1cc(F)c(S(=O)(=O)N2CCNCC2)cc1C(=O)Nc1ccc(F)c(F)c1
Found: 26.4

Lookup: Record request: selectivity ratio value, item Nc1cc(F)c(S(=O)(=O)NC2CCOC2)cc1C(=O)Nc1ccc(F)c(F)c1 (centres undefined)
Found: 53.6

Lookup: Record request: selectivity ratio value, item COCCNS(=O)(=O)c1cc(C(=O)Nc2ccc(F)c(F)c2)c(N)cc1F
Found: 32.1

Lookup: Record request: selectivity ratio value, item Nc1cc(F)c(S(=O)(=O)NC2CCC2)cc1C(=O)Nc1ccc(F)c(C(F)F)c1
Found: 125

Lookup: Record request: selectivity ratio value, item CC(C)(NS(=O)(=O)c1cc(C(=O)Nc2ccc(F)c(C(F)F)c2)c(N)cc1F)C1COC1
Found: 277

Lookup: Record request: selectivity ratio value, item Nc1cc(F)c(S(=O)(=O)NC2CNC2)cc1C(=O)Nc1ccc(F)c(F)c1
Found: 56.5

Lookup: Record request: selectivity ratio value, item CC(C)NS(=O)(=O)c1cc(C(=O)Nc2ccc(F)c(F)c2)c(N)cc1F
Found: 36.8

Lookup: Record request: selectivity ratio value, item CN(C1COC1)S(=O)(=O)c1cc(C(=O)Nc2ccc(F)c(C(F)F)c2)c(N)cc1F
Found: 115

Lookup: Record request: selectivity ratio value, item Nc1cc(F)c(S(=O)(=O)NC2COC2)cc1C(=O)Nc1ccc(F)c(C(F)F)c1
Found: > 17500

Lookup: Record request: selectivity ratio value, item Nc1cc(F)c(S(=O)(=O)N2CC3CCC(C2)O3)cc1C(=O)Nc1ccc(F)c(F)c1
Found: 38.5

Lookup: Record request: selectivity ratio value, item Nc1cc(F)c(S(=O)(=O)N[C@H]2COC(=O)C2)cc1C(=O)Nc1ccc(F)c(C(F)F)c1
Found: 237

Lookup: Record request: selectivity ratio value, item Nc1cc(F)c(S(=O)(=O)N2CC3(COC3)C2)cc1C(=O)Nc1ccc(F)c(C(F)F)c1
Found: > 3540

Lookup: Record request: selectivity ratio value, item Nc1cc(F)c(S(=O)(=O)N2CCOCC2)cc1C(=O)Nc1ccc(F)c(C(F)F)c1
Found: 4240

Lookup: Record request: selectivity ratio value, item Nc1cc(F)c(S(=O)(=O)NC2CCOCC2)cc1C(=O)Nc1ccc(F)c(F)c1
Found: 21.1

Lookup: Record request: selectivity ratio value, item N#Cc1cc(NC(=O)c2cc(S(=O)(=O)N3CCOCC3)c(F)cc2N)ccc1F
Found: > 299
